Hey, just so you know, these numbers are from patent US8586611B2.

# System: Phytophthora infestans
# assay notes: whole plant or invertebrate
# Assay type: in vivo
# condition label: tomato late blight; spray 17 h after inoculation; compounds without asterisk (not 40 or 10 ppm)
The threshold is 70%. Values of Test D disease rating (100 = 100% disease control, 0 = no disease control) beneath it are tagged rule met; values meeting or exceeding it are tagged rule not met.

>  <compound>
Cc1nc(CC(=O)N2CCC(c3nc(C(=O)N(C)[C@H](C)c4ccccc4)cs3)CC2)cs1

>  <answer label>
rule not met

$$$$
>  <compound>
CC[C@H](c1ccccc1)N(C)C(=O)c1csc(C2CCN(C(=O)Cc3cccc(C)c3)CC2)n1

>  <answer label>
rule not met

$$$$
>  <compound>
CC(c1cccnc1)N(C)C(=O)c1csc(C2CCN(C(=O)Cc3cccc(C(F)(F)F)c3)CC2)n1 (stereo not drawn)

>  <answer label>
rule met

$$$$
>  <compound>
Cc1cc(C(F)(F)F)nn1CC(=O)N1CCCN(c2nc(C(=O)N(C)[C@@H]3CCCc4ccccc43)cs2)CC1.Cl

>  <answer label>
rule not met

$$$$
>  <compound>
Cc1cc(C(F)(F)F)nn1CC(=O)N1CCC(c2nc(C(=O)N(C)[C@H](C(=O)O)c3ccccc3)cs2)CC1

>  <answer label>
rule met

$$$$
>  <compound>
Cc1ccc(C)c(CC(=O)N2CCC(c3nc(C(=O)N(C)C4CCSc5ccccc54)cs3)CC2)c1 (stereo not drawn)

>  <answer label>
rule not met

$$$$
